# TARGET OF ASSAY: HLA-B*0702 (Homo sapiens)
# TEST DESCRIPTION: Purified HLA class I peptide binding assay, B*0702
# MEASUREMENT CONTEXT: binding affinity, HLA-B7 supermotif-bearing peptides
Residues, ends and D or L forms follow the SMILES beside them.
OBSERVABLE: IC50 (nM)

molecule="CC[C@H](C)[C@H](NC(=O)[C@H](Cc1ccc(O)cc1)NC(=O)[C@H](CC(C)C)NC(=O)[C@H](Cc1c[nH]cn1)NC(=O)CNC(=O)[C@@H](NC(=O)[C@@H]1CCCN1C(=O)[C@@H](N)Cc1ccccc1)[C@@H](C)CC)C(=O)N[C@@H](Cc1ccccc1)C(=O)N[C@@H](C)C(=O)O (H-FPIGHLYIFA-OH; N-terminus and C-terminus assumed)" observable=IC50 observed_measurement=39
molecule=CC[C@H](C)[C@H](NC(=O)[C@@H]1CCCN1C(=O)[C@@H]1CCCN1C(=O)[C@H](Cc1ccc(O)cc1)NC(=O)[C@H](CO)NC(=O)[C@@H](NC(=O)[C@H](Cc1c[nH]cn1)NC(=O)[C@@H]1CCCN1C(=O)[C@@H](N)Cc1ccccc1)[C@@H](C)CC)C(=O)O observable=IC50 observed_measurement=2.9
molecule=CSCC[C@H](NC(=O)[C@@H](NC(=O)[C@@H](NC(=O)[C@@H]1CCCN1C(=O)[C@@H](N)Cc1ccccc1)[C@@H](C)O)[C@@H](C)O)C(=O)N[C@@H](CC(N)=O)C(=O)N[C@@H](Cc1ccc(O)cc1)C(=O)N1CCC[C@H]1C(=O)N[C@@H](CC(C)C)C(=O)N[C@@H](Cc1c[nH]c2ccccc12)C(=O)O observable=IC50 observed_measurement=220
molecule="CC[C@H](C)[C@H](NC(=O)[C@H](Cc1ccc(O)cc1)NC(=O)[C@H](CO)NC(=O)[C@@H](NC(=O)[C@H](CCC(=O)O)NC(=O)[C@@H](NC(=O)[C@H](CC(C)C)NC(=O)[C@H](C)NC(=O)[C@H](CCCNC(=N)N)NC(=O)[C@@H]1CCCN1C(=O)[C@@H](N)Cc1ccccc1)[C@@H](C)CC)[C@@H](C)O)C(=O)O (H-FPRALIETSYI-OH; N-terminus and C-terminus assumed)" observable=IC50 observed_measurement=7.4
molecule=CC[C@H](C)[C@H](NC(=O)[C@H](Cc1ccccc1)NC(=O)[C@@H](NC(=O)[C@H](Cc1ccc(O)cc1)NC(=O)[C@H](CC(C)C)NC(=O)[C@H](Cc1c[nH]cn1)NC(=O)CNC(=O)[C@@H](NC(=O)[C@@H]1CCCN1C(=O)[C@@H](N)Cc1ccccc1)[C@@H](C)CC)[C@@H](C)CC)C(=O)O observable=IC50 observed_measurement=63

P = CC[C@H](C)[C@H](NC(=O)[C@@H](NC(=O)[C@@H](NC(=O)[C@H](CC(C)C)NC(=O)[C@H](CC(C)C)NC(=O)CNC(=O)[C@H](C)NC(=O)[C@H](CCCCN)NC(=O)[C@@H]1CCCN1C(=O)[C@@H](N)Cc1ccccc1)[C@@H](C)CC)[C@@H](C)CC)C(=O)O
Q = CC[C@H](C)[C@H](NC(=O)[C@@H](NC(=O)[C@H](Cc1ccc(O)cc1)NC(=O)[C@H](CC(C)C)NC(=O)[C@H](Cc1c[nH]cn1)NC(=O)[C@H](CO)NC(=O)[C@@H](NC(=O)[C@@H]1CCCN1C(=O)[C@@H](N)Cc1ccccc1)[C@@H](C)CC)[C@@H](C)CC)C(=O)O
Smaller IC50 value? Options are P and Q Return value: the label identifying the chosen record. Q
(Q: 2.9 nM, P: 204 nM)
